Assay: Binding of factor VIIa inhibitor to plasma proteins (shift in IC50, buffer vs plasma)
Type: in vitro ADME
Settings: pH 7.5, probe D-Ile-Pro-Arg-AFC (fluorogenic factor VIIa substrate); factor X deficient human plasma; 1-IC50 in buffer/IC50 in plasma; read-out: Protein binding (converted)
reported_endpoint: fraction unbound
# answer = number (no unit)

# input State its fraction unbound: CCOc1cc(C(Nc2ccc3c(N)nccc3c2)C(=O)NS(=O)(=O)c2ccc(O)cc2)ccc1OC(C)C (stereo not shown) [Compound B]
# output 0.008

---

Target: factor VIIa (Homo sapiens)
Construct: proteolytic cleavage of factor X to factor Xa, factor IX to factor IXa and additional factor VII to factor VIIa
Test: Factor VIIa inhibition in buffer and in factor X deficient human plasma
Type: biochemical
Settings: 90% factor X deficient plasma, 2.5 nM factor VIIa, FIG. 5; read-out: IC50 in plasma
reported_endpoint: IC50 (µM)
Please give a number only; it is taken to be in µM.

# input State its IC50: CCOc1cc(C(Nc2ccc3c(N)nccc3c2)C(=O)NS(=O)(=O)c2ccc(O)cc2)ccc1OC(C)C (stereo not shown)
# output 3.3

---

Target: factor VIIa (Homo sapiens, UniProt P08709)
Construct: proteolytic cleavage of factor X to factor Xa, factor IX to factor IXa and additional factor VII to factor VIIa
Sequence (P08709 61-212 limits assumed): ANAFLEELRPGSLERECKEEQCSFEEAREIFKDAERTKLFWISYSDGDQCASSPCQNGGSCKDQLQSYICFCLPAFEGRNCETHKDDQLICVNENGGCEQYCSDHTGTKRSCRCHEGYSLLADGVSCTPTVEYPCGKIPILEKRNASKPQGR
Sequence (P08709 213-466 limits assumed): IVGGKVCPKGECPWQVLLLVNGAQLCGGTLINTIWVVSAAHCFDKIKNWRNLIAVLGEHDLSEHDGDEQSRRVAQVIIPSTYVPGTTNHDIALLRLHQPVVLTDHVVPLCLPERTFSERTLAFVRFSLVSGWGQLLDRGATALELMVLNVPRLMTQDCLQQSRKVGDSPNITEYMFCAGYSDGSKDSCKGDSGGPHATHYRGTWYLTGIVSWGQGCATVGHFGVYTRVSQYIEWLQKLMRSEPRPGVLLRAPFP
Sequence (P13726 with tags, fused parts or gaps partner limits assumed): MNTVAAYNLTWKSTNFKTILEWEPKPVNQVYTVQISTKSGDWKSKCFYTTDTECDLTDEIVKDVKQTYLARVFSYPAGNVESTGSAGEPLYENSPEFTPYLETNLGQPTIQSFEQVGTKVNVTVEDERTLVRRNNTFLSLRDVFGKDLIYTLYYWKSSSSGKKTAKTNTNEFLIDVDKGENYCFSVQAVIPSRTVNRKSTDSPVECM
Assay: Factor VIIa inhibition in buffer and in factor X deficient human plasma
Format: biochemical
Details: buffer without plasma, 2.5 nM factor VIIa, FIG. 5; read-out: IC50 in buffer
reported_endpoint: pIC50
# pIC50 = -log10(concentration in molar units)

# input State pIC50 on factor VIIa (Homo sapiens, UniProt P08709). Entry: CCOc1cc(C(Nc2ccc3c(N)nccc3c2)C(=O)NS(=O)(=O)c2ccc(O)cc2)ccc1OC(C)C (stereo not shown)
# output 7.59
